assay: recombinant UMI read abundance after kanamycin selection (control-corrected) (log10(CPM+1)); higher = more efficient recombination; extreme values may be limits of the assay; sequences stand for … in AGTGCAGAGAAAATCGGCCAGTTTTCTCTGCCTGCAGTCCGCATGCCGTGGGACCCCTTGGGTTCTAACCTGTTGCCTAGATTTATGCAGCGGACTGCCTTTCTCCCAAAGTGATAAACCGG…AGGTTGGTTTCACT; site = the 11-nt donor
Label n if recombinant UMI read abundance (log10) falls below 0.02; label y in every other case.

Study these solved cases before continuing.
# SEQUENCE_CONTENT, LABEL_VALUE
measured = [
    ("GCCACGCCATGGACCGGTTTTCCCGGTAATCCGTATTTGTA (site CCCACGCCTTA)", "n"),
    ("CAGTGTACATGGACCGGTTTTCCCGGTAATCCGTATTTGCA (site CAGTGTACTTG)", "y"),
    ("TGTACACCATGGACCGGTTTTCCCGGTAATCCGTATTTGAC (site TGTACACCTTT)", "n"),
]

### Prompt Please check the record GAGTGGCCATGGACCGGTTTTCCCGGTAATCCGTATTTGCA (site GAATGGCCTTG) and state if its recombinant UMI read abundance (log10) is at or above 0.02.
### Response n

### Prompt Please check the record ATGTAGGCATGGACCGGTTTTCCCGGTAATCCGTATTTGTC (site ATGTAGGCTGC) and state if its recombinant UMI read abundance (log10) is at or above 0.02.
### Response y

###

assay: recombinant barcode read abundance after kanamycin selection (control-corrected) (log10(CPM+1)); higher = more efficient recombination; sequences stand for … in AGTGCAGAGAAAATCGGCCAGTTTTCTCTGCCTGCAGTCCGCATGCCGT…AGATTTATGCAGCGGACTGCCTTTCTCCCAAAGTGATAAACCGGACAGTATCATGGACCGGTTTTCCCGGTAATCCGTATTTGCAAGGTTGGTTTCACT; site = the 11-nt target
Consider the following sequences; for each one, report its recombinant barcode read abundance (log10).
Numbers only.

Observe how each entry below is paired with its result.
# SEQUENCE_CONTENT, MEASURED_VALUE
data = [
    ("CCTTGGGCTTGGGTTCTAACCTGTTGCTT (site CTTTGGCCTAA)", 0.305),
    ("CAGCACTCTTGGGTTCTAACCTGTTGCTA (site CAGGACTCTAA)", 0.201),
    ("AAGTCCACTTGGGTTCTAACCTGTTGCCT (site ATTTCCACTAG)", 0.027),
]

Record recombinant barcode read abundance (log10) for all entries; do not skip any.
1. TACGCACCTTGGGTTCTAACCTGTTGCGA (site GTAATTACTAG)
2. CGCCTCCCTTGGGTTCTAACCTGTTGCCT (site CGCCTCCCTAG)
3. CTATTCTCTTGGGTTCTAACCTGTTGCCT (site CTATTCCCTAG)
4. CGTCTCCCTTGGGTTCTAACCTGTTGCTT (site CGTATCCCTCA)
5. GAAGACGCTTGGGTTCTAACCTGTTGCCT (site GAAGACGCTAG)
6. CGATTTCCTTGGGTTCTAACCTGTTGCAT (site CGATTTCCTAG)
7. GCAAGGCCTTGGGTTCTAACCTGTTGCCT (site GCAAGGCCTAG)
8. GATTCTCCTTGGGTTCTAACCTGTTGCAT (site GATTCTCCTAT)

### Response
1. 0.297
2. 0.446
3. 0.188
4. 0.108
5. 1.14
6. 0
7. 0.418
8. 0.197

Record recombinant barcode read abundance (log10) for all entries; do not skip any.
1. ATATTATCTTGGGTTCTAACCTGTTGCCA (site ATATGATCTAG)
2. GAGATGACTTGGGTTCTAACCTGTTGCGG (site GAGACGACTCG)
3. ATGAAGACTTGGGTTCTAACCTGTTGCCT (site ATGAAGACTAG)
4. TCGGCTCCTTGGGTTCTAACCTGTTGCCT (site TCGGCTCCTAG)

### Response
[0.0788, 0.0565, 2.13, 0.712]

Record recombinant barcode read abundance (log10) for all entries; do not skip any.
1. ATTACCTCTTGGGTTCTAACCTGTTGCCT (site ATTACCTCTAG)
2. GCGTTGCCTTGGGTTCTAACCTGTTGCCT (site GAGTTGCCTAG)
3. TCTATGACTTGGGTTCTAACCTGTTGCCT (site TCTATGACTAG)
4. CGTTCAACTTGGGTTCTAACCTGTTGCCT (site CGTTCCACTAG)
5. CTAGCTCCTTGGGTTCTAACCTGTTGCTT (site GCTTGGTCTTC)
6. GTCGGGCCTTGGGTTCTAACCTGTTGCCT (site TTCGGGCCTAG)
7. ATGGTGGCTTGGGTTCTAACCTGTTGCCT (site ATGGTGACTAG)

### Response
1.1
0.073
0.0099
0.0618
0.0776
0.126
1.17

Hey, just so you know, these numbers are from the supplement of paper PMC11208160.
